meta.source: patent US10233180B2

System: Human ovarian cancer cell strain OVCAR-8
protocol description: MTT assay, inhibition of tumor cell growth in vitro, 72 h
Format: cell-based
recorded conditions: Homo sapiens, OVCAR-8, MTT, read-out: Antitumor proliferative activities of tumor cell (IC50, μM) OVCAR-8
property: IC50 (µM)

> print(dat)
                                   compound  property  quantitative.result
1  CCc1cnn(C)c1-c1cccc(C(=O)N[C@H]2CNCC[C@@H]2c2ccc(Cl)cc2)c1Cl (racemic)      IC50                 4.69
2  Cn1ncc(Cl)c1-c1cc(C(=O)N[C@@H]2CNC(CCNCC(O)CO)C[C@H]2c2ccc(Cl)c(Cl)c2)oc1Cl (stereo partly shown)      IC50                 0.09
3  Cc1nc(C(=O)N[C@H]2CNCC[C@@H]2c2ccc(F)c(F)c2)ncc1-c1c(Cl)cnn1C (racemic)      IC50                 1.06
4  Cn1ncc(Cl)c1-c1ccc(C(=O)N[C@@H]2CNCC[C@H]2c2ccc(F)c(F)c2)cc1F      IC50                 1.15
5  Cn1ncc(Cl)c1-c1ccc(C(=O)N[C@@H]2CNCC[C@H]2c2cccc3[nH]ccc23)cc1Cl      IC50                 2.91

1 = C[C@H]1CNC[C@@H](NC(=O)c2cc(-c3c(Cl)cnn3C)c(Cl)o2)[C@@H]1c1cccc(F)c1
2 = Cn1ncc(CO)c1-c1ccc(C(=O)N[C@@H]2CNCC[C@H]2c2cccc(F)c2)s1
Problem: Looking at 1 and 2 , which one comes out lower in IC50 terms? Response format: the label of the selected entry.
Solution: 2

----------
Let's go through some IC50 measurements on Akt1 (Homo sapiens, UniProt P31749) together.
Sequence (P31749 whole entry): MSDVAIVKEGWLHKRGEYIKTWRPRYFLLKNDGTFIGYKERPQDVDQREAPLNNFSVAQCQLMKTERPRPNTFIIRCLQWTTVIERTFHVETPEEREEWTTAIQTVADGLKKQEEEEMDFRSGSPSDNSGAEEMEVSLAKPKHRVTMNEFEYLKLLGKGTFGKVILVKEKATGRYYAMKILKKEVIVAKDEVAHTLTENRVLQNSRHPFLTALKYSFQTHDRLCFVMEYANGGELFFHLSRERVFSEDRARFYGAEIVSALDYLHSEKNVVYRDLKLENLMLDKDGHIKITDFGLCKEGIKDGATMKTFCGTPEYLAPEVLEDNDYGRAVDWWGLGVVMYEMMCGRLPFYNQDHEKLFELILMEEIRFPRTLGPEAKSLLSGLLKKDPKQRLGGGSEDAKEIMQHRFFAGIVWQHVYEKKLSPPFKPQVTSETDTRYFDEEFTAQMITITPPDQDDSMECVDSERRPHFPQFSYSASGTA
property: IC50 (nM)

Worked examples follow.
> print(dat)
                                   compound  unit.abbreviation  quantitative.result
1  Cn1ncc(Br)c1-c1coc(C(=O)N[C@H]2CNCC[C@@H]2c2ccc(C(F)(F)F)cc2)c1 (racemic) [Compound 27]                 nM                   17
2  Cn1ncc(Cl)c1-c1cnc(C(=O)N[C@@H]2CNCC[C@H]2c2ccc(F)c(F)c2)nc1 [Compound 93]                 nM                    8
3  CNC(=O)CC1C[C@@H](c2ccc(Cl)c(Cl)c2)[C@H](NC(=O)c2cc(-c3c(Cl)cnn3C)c(Cl)o2)CN1 (stereo partly drawn) [Compound 118]                 nM                    3
4  Cn1ncc(Cl)c1-c1ccc(C(=O)N[C@@H]2CNCC[C@H]2c2ccc(F)c(F)c2)cc1Cl [Compound 78]                 nM                    6
5  Cn1ncnc1-c1cc(C(=O)N[C@H]2CNCC[C@@H]2c2ccc(C(F)(F)F)cc2)oc1Br (racemic) [Compound 3]                 nM                   43
6  Cn1ncc(Cl)c1-c1coc(C(=O)N[C@H]2CNCC[C@@H]2c2ccc(F)c(F)c2)c1 (racemic) [Compound 25]                 nM                  238

P = CCC[C@H]1CNC[C@@H](NC(=O)c2cc(-c3c(Cl)cnn3C)c(Cl)o2)[C@@H]1c1cccc(F)c1 [Compound 137]
Q = CC(O)c1cnn(C)c1-c1ccc(C(=O)N[C@@H]2CNCC[C@H]2c2cccc(F)c2)s1 (stereo partly drawn) [Compound 143]
Problem: Between item P and item Q , which reported IC50 is smaller? Pick one; state its label.
Solution: Q

A = Cn1ncc(Cl)c1-c1cc(C(=O)N[C@@H]2CNC(CCn3cncn3)C[C@H]2c2ccc(Cl)c(Cl)c2)oc1Cl (stereo partly drawn) [Compound 122]
B = Cn1ncc(Cl)c1-c1cc(C(=O)N[C@H]2CNCC[C@@H]2c2ccccc2)oc1Cl (racemic) [Compound 29]
C = CNC(=O)CC1C[C@@H](c2ccc(F)c(F)c2)[C@H](NC(=O)c2ccc(-c3c(Cl)cnn3C)cc2)CN1 (stereo partly drawn) [Compound 98]
D = Cn1ncc(Br)c1-c1ccc(C(=O)N[C@@H]2CNCC[C@H]2c2cc(F)c(F)c(F)c2)cc1 [Compound 81]
E = Cc1cnn(C)c1-c1cnc(C(=O)N[C@H]2CNCC[C@@H]2c2ccc(F)c(F)c2)cc1F (racemic) [Compound 46]
Problem: Rank descending by IC50. Please list the labels according to the requested order.
Solution: E, B, D, C, A

----------
assay target: UniProt:P31749
pIC50: −log10 of the molar value.
property: pIC50

P = Cc1cccc([C@H]2CCNC[C@@H]2NC(=O)c2cc(Cl)c(-c3ncnn3C)o2)c1 (racemic) [Compound 7]
Q = Cc1cnn(C)c1-c1cnc(C(=O)N[C@H]2CNCC[C@@H]2c2ccc(F)c(F)c2)cc1F [Compound 61]
Problem: Rank P against Q by their pIC50 values and give the higher one. Identify your pick by its label.
Solution: P
(P: 7.21, Q: 6.73)

----------
Test system: Human ovarian cancer cell strain OVCAR-8
protocol description: MTT assay, inhibition of tumor cell growth in vitro, 72 h
Assay type: cell-based
recorded conditions: Homo sapiens, OVCAR-8, MTT, read-out: Antitumor proliferative activities of tumor cell (IC50, μM) OVCAR-8
property: IC50 (µM)

Some compounds with known IC50 results, for comparison:
> print(dat)
                                   compound                              assay.target  unit.abbreviation  quantitative.result
1  CCc1c(-c2ncnn2C)c(Br)n(C)c1C(=O)N[C@H]1CNCC[C@@H]1c1cccc(C(F)(F)F)c1 (racemic) [Compound 4]  Human ovarian cancer cell strain OVCAR-8                 µM                 5.19
2  Cc1cc(-c2c(Cl)cnn2C)cc(C(=O)N[C@H]2CNCC[C@@H]2c2ccccc2)n1 (relative stereo) [Compound 45]  Human ovarian cancer cell strain OVCAR-8                 µM                 2.01
3  Cn1ncc(Cl)c1-c1ccc(C(=O)N[C@@H]2CNCC[C@H]2c2cccc(F)c2)cc1Cl [Compound 86]  Human ovarian cancer cell strain OVCAR-8                 µM                 1.26

a = Cn1ncc(C(=O)O)c1-c1ccc(C(=O)N[C@@H]2CNCC[C@H]2c2cccc(F)c2)s1 [Compound 142]
b = Cn1ncc(Cl)c1-c1coc(C(=O)N[C@H]2CNCC[C@@H]2c2ccc(C(F)(F)F)cc2)c1 (racemic) [Compound 24]
c = Cc1[nH]c(C(=O)N[C@H]2CNCC[C@@H]2c2cccc(C#N)c2)cc1-c1c(Br)cnn1C (racemic) [Compound 10]
d = Cn1ncc(Cl)c1-c1ccc(C(=O)N[C@@H]2CNCC[C@H]2c2ccc(Cl)c(C(F)(F)F)c2)c(F)c1 [Compound 84]
Problem: Please order the records by their reported IC50, lowest number first. Write the labels in rank order as requested.
Solution: b, a, d, c

----------
System: human colon cancer cell strain HCT-116
protocol description: MTT assay, inhibition of tumor cell growth in vitro, 72 h
Format: cell-based
recorded conditions: Homo sapiens, HCT-116, MTT, read-out: Antitumor proliferative activities of tumor cell (IC50, μM) HCT-116 (converted)
property: IC50 (µM)

a = Cn1ncc(Cl)c1-c1cc(C(=O)N[C@H]2CNC[C@@H]2c2ccc(C(F)(F)F)cc2)oc1Cl (racemic) [Compound 69]
b = Cn1ncc(Br)c1-c1csc(C(=O)N[C@H]2CNCC[C@@H]2c2ccc(F)c(F)c2)c1 (racemic) [Compound 38]
Problem: Among a and b , whose measured IC50 is the smaller figure? Write down the label attached to your selection.
Solution: b

1 = Cn1ncc(Cl)c1-c1cc(C(=O)N[C@@H]2CNC(CCNCC(O)CO)C[C@H]2c2ccc(Cl)c(Cl)c2)oc1Cl (stereo partly shown) [Compound 123]
2 = CCCc1cc(C(=O)N[C@H]2CNCC[C@@H]2c2cc(OC)cc(OC)c2)ccc1-c1c(Br)cnn1C (racemic) [Compound 54]
Problem: Which has the smaller recorded IC50, 1 or 2 ? Your answer should be the label of the entry you select.
Solution: 1
(1: 0.07 µM, 2: 3.14 µM)

----------
Tested on: Human ovarian cancer cell strain OVCAR-8
protocol description: MTT assay, inhibition of tumor cell growth in vitro, 72 h
Type: cell-based
recorded conditions: Homo sapiens, OVCAR-8, MTT, read-out: Antitumor proliferative activities of tumor cell (IC50, μM) OVCAR-8
property: IC50 (µM)

Observe how each entry below is paired with its result.
> print(dat)
                                   molecule                              assay.target  quantitative.result
1  Cn1ncc(Cl)c1-c1cnc(C(=O)N[C@@H]2CNCC[C@H]2c2ccc(F)c(F)c2)c(F)c1  Human ovarian cancer cell strain OVCAR-8                 4.89
2  Cc1sc(C(=O)N[C@H]2CNCC[C@@H]2c2ccc(F)c(F)c2)nc1-c1c(Cl)cnn1C (racemic)  Human ovarian cancer cell strain OVCAR-8                 9.91
3  Cn1ncc(Cl)c1-c1coc(C(=O)N[C@H]2CNC[C@@H]2c2ccc(F)c(F)c2)c1 (racemic)  Human ovarian cancer cell strain OVCAR-8                 3.48
4  COCCC1C[C@@H](c2ccc(Cl)c(Cl)c2)[C@H](NC(=O)c2cc(-c3c(Cl)cnn3C)c(Cl)o2)CN1 (stereo partly drawn)  Human ovarian cancer cell strain OVCAR-8                 0.56
5  Cn1nccc1-c1coc(C(=O)N[C@H]2CNCC[C@@H]2c2ccc(F)c(F)c2)c1 (racemic)  Human ovarian cancer cell strain OVCAR-8                 10.7
6  Cn1ncc(Br)c1-c1csc(C(=O)N[C@H]2CNCC[C@@H]2c2ccc(Cl)cc2)c1 (racemic)  Human ovarian cancer cell strain OVCAR-8                 5.36

I = Cn1ncc(Cl)c1-c1sc(C(=O)N[C@@H]2CNCC[C@H]2c2cccc(F)c2)cc1Cl
II = CC(Cl)c1ccc([C@H]2CCNC[C@@H]2NC(=O)c2cc(Cl)c(-c3ncnn3C)s2)cc1 (stereo partly drawn)
III = Cn1ncc(Cl)c1-c1cc(C(=O)N[C@@H]2CNC(CCO)C[C@H]2c2ccc(Cl)c(Cl)c2)oc1Cl (stereo partly drawn)
IV = Cn1ncc(Cl)c1-c1ccc(C(=O)N[C@@H]2CNCC[C@H]2c2cccc(F)c2)cc1N
Problem: Please give the order of these molecules when sorted by IC50, largest value leading. # list labels per requested ordering
Solution: II, IV, I, III
